Molecular target: affinity purified β2GPI-dependent antiphospholipid antibody
Assay: Competitive inhibition ELISA: recombinant β2GPI proteins compete for antibody binding to coated full length recombinant β2GPI
Parameters: species or system human
Conditions: Ab 6501; read-out: 50% (concentration to give 50% inhibition)
Test readout: IC50

Take a look at these entries with their results.
1) 12---: recombinant β2GPI deletion mutant with domains 1 and 2 (protein) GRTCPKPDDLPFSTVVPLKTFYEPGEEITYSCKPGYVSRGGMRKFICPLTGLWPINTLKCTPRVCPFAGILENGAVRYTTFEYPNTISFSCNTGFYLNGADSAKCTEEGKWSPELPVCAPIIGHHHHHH ... > 10 µM
2) --345: recombinant β2GPI deletion mutant with domains 3, 4, 5 (protein) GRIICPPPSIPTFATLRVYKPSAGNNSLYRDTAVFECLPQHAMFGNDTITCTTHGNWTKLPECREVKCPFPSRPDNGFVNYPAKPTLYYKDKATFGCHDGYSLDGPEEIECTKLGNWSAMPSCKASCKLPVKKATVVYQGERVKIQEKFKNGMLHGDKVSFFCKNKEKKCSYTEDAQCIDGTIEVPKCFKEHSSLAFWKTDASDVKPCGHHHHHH ... > 50 µM
3) ---45: recombinant β2GPI deletion mutant with domains 4, 5 (protein) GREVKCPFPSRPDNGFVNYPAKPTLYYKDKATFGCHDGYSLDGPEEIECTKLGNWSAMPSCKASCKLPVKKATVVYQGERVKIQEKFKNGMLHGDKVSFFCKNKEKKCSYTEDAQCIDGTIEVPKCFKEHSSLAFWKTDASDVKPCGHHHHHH ... > 40 µM
4) 1234-: recombinant β2GPI deletion mutant with domains 1, 2, 3, 4 (protein) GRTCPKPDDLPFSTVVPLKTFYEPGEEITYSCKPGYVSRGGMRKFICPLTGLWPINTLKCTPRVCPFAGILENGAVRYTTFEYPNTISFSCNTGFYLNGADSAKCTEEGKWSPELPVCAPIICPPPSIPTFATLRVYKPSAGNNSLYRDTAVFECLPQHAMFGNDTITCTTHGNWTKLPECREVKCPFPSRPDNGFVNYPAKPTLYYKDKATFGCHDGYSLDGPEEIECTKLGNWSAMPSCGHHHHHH ... > 8 µM
5) -2345: recombinant β2GPI deletion mutant with domains 2-5 (protein) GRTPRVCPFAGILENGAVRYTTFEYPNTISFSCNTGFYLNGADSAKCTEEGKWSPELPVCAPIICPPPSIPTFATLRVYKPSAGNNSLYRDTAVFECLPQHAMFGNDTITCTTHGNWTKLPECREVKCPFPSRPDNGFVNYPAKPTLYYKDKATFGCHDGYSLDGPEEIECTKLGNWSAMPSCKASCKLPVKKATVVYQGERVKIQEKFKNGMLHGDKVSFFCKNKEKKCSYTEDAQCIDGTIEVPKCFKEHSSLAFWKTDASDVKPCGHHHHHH ... > 57 µM
6) 123--: recombinant β2GPI deletion mutant with domains 1, 2, 3 (protein) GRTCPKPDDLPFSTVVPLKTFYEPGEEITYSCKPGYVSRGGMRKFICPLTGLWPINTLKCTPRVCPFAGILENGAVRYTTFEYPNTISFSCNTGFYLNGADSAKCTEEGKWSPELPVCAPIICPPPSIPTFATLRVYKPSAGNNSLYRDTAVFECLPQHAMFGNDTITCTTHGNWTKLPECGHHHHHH ... 0.8 µM

Return reported IC50; argument: recombinant β2GPI domain 5 with GlyHis6 (----5) (protein) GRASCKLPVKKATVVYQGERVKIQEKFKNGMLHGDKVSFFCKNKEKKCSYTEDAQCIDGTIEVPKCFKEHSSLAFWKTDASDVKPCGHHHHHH
> 47 µM

Data origin: patent US6858210B1
